target-or-system: T1, human GIP receptor (human, UniProt P48546 22-466)
T1 sequence (looked up): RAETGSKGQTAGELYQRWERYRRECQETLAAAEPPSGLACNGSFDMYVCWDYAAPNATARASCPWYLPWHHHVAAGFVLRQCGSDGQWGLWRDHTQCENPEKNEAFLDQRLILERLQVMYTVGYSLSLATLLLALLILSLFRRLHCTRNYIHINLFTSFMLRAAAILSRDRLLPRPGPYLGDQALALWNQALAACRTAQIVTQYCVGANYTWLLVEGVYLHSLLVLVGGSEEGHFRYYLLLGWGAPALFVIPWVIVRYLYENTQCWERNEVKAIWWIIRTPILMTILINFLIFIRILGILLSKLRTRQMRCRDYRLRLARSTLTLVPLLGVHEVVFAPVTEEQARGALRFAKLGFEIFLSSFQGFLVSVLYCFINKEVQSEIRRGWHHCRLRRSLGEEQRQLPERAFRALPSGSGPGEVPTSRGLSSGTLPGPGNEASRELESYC
test-name: cell-based or functional assay
Ends that are not written are not given here. * marks the point of attachment. Palmitoyl = CCCCCCCCCCCCCCCC(=O)*
Reported Emax (10 µM), % of native GIP is given for each of the following binders.
recorded-endpoint: Emax (10 µM), % of native GIP (%)

{"binder": "HADGTFISDYSTILDNLAARDFINWLIQTKGK(Palmitoyl)K [GIP-GLP-2 co-agonist 36]", "recorded-endpoint": "Emax (10 µM), % of native GIP", "measured-result": 100}
{"binder": "HADGTFISDYSTILDNLAARDFINWLIQTKITK (C16 acyl group on Lys 33 (K(c16/33), 'with C16 pos 33')) [GIP-GLP-2 co-agonist 33]", "recorded-endpoint": "Emax (10 µM), % of native GIP", "measured-result": 100}
{"binder": "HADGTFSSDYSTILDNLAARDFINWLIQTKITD (not fully specified (residue 1, N-terminus); also: C16 acyl group on His 1 (attachment site not given here)) [GIP-GLP-2 co-agonist 22]", "recorded-endpoint": "Emax (10 µM), % of native GIP", "measured-result": 100}
{"binder": "HADGTFISDYSTILDKLAARDFINWLIQTKITK [GIP-GLP-2 co-agonist 26]", "recorded-endpoint": "Emax (10 µM), % of native GIP", "measured-result": 100}
{"binder": "HADGTFISDYSKILDNLAARDFINWLIQTKITK [GIP-GLP-2 co-agonist 24]", "recorded-endpoint": "Emax (10 µM), % of native GIP", "measured-result": 100}
{"binder": "HADGTFSSDYSTILDNLAARDFINWLIQTK(Palmitoyl)ITD [GIP-GLP-2 co-agonist 23]", "recorded-endpoint": "Emax (10 µM), % of native GIP", "measured-result": 81}
{"binder": "HADGTFSSDYSTILDNLAAK(Palmitoyl)DFINWLIQTKITD [GIP-GLP-2 co-agonist 21]", "recorded-endpoint": "Emax (10 µM), % of native GIP", "measured-result": 94}
{"binder": "HADGTFISDYSTILDNLAARDFINWLIQTK(Palmitoyl)ITK [GIP-GLP-2 co-agonist 31]", "recorded-endpoint": "Emax (10 µM), % of native GIP", "measured-result": 91}
{"binder": "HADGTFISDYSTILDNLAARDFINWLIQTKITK (C12 acyl group on Lys 33 (K(C12/33), 'with C12 pos 33')) [GIP-GLP-2 co-agonist 32]", "recorded-endpoint": "Emax (10 µM), % of native GIP", "measured-result": 100}
{"binder": "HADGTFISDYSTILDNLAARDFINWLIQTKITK (not fully specified (residue 1, N-terminus); also: C16 acyl group on His 1 (attachment site not given here)) [GIP-GLP-2 co-agonist 29]", "recorded-endpoint": "Emax (10 µM), % of native GIP", "measured-result": 115}
{"binder": "HADGTFISDYSTIKDNLAARDFINWLIQTKITK [GIP-GLP-2 co-agonist 25]", "recorded-endpoint": "Emax (10 µM), % of native GIP", "measured-result": 92}
{"binder": "HADGTFISDYSTILDNLAARDFINWLIQTKGKKNDWKHNITQ [GIP-GLP-2 co-agonist 34]", "recorded-endpoint": "Emax (10 µM), % of native GIP", "measured-result": 100}
